molecular target: HCV Core 134-171-TT peptide (ALRZ-9 peptide) (HCV-1); assay: SPR, captured mAb;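 also: Anti-HCV Core mAbs from hybridoma supernatants held on a rabbit anti-mouse IgG CM5 surface, peptide flowed over 3 min then 4 min dissociation, duplicate concentrations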
Labelling: Kd reported below 0.5 nM becomes criterion met; at or above becomes criterion not met.

Prompt: is_below(Kd, 0.5 nM) for HCV 208A-605 (antibody, V domains shown) VH: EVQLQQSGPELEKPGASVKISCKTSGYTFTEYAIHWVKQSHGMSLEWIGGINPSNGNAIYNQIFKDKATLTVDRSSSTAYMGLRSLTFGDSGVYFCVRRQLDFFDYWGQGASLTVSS VL: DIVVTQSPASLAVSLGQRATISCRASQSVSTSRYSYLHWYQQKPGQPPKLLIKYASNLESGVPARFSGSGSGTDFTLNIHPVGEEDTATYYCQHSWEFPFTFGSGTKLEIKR ?
Completion: criterion met

Prompt: is_below(Kd, 0.5 nM) for HCV 208B-672 (antibody, V domains shown) VH: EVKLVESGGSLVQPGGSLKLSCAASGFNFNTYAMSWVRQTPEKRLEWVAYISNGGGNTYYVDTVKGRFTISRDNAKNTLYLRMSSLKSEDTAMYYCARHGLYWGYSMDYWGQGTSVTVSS VL: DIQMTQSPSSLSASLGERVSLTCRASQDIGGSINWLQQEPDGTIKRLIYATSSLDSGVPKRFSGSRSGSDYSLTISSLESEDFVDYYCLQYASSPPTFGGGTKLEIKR ?
Completion: criterion met

Prompt: is_below(Kd, 0.5 nM) for HCV 208A-352 (antibody, V domains shown) VH: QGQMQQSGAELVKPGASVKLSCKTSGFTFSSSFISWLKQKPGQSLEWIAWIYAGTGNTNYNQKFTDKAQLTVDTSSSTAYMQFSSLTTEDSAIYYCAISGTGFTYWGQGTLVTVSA VL: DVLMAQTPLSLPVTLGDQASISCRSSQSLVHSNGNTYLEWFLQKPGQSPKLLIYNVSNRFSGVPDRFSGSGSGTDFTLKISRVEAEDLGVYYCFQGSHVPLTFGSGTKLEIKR ?
Completion: criterion not met

Prompt: is_below(Kd, 0.5 nM) for HCV 208B-471 (antibody, V domains shown) VH: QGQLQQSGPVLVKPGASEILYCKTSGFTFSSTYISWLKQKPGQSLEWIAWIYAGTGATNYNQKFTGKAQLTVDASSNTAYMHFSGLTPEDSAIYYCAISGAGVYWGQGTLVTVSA VL: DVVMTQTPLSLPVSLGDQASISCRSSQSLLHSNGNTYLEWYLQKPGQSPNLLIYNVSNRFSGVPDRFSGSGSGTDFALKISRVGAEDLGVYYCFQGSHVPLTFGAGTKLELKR ?
Completion: criterion met

Prompt: is_below(Kd, 0.5 nM) for HCV 208A-877 (antibody, V domains shown) VH: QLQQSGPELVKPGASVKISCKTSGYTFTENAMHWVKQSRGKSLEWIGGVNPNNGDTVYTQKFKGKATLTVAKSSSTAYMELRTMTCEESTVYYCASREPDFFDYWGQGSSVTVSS VL: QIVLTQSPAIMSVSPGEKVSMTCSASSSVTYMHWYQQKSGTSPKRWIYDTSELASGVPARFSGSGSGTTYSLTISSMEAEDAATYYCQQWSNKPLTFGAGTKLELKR ?
Completion: criterion not met

Values were extracted from patent US9371374.
